- Test system: Cerebrospinal fluid
- assay protocol: Drug uptake in rat cerebrospinal fluid at 0.5 mg/kg, iv and 1 mg/kg, po
- Type: ADME, organism-based
- setup conditions: in vivo, read-out: Drug uptake
observable: concentration (nM)

- structure notation: "CCS(=O)(=O)c1ccc2oc(Nc3ccc(N4C[C@@H](C)O[C@@H](C)C4)cc3)nc2c1"
  tested on: "Cerebrospinal fluid"
  readout number: 15.9
- structure notation: "CCS(=O)(=O)c1ccc2oc(Nc3ccc(OC(C)C)cc3)nc2c1"
  tested on: "Cerebrospinal fluid"
  readout number: 8.8

###

The compounds listed here are annotated with their remaining at 0.5 h.
- assay protocol: Metabolic stability of the compound in rat microsomes assessed as compound remaining after 30 mins
- Assay type: ADME, Microsome
- setup conditions: read-out: Stability
observable: remaining at 0.5 h (%)

- structure notation: "CCS(=O)(=O)c1ccc2oc(Nc3ccc(OC(C)C)cc3)nc2c1"
  observable: "remaining at 0.5 h"
  readout number: 73
- structure notation: "CCS(=O)(=O)c1ccc2oc(Nc3ccc(N4C[C@@H](C)O[C@@H](C)C4)c(F)c3)nc2c1"
  observable: "remaining at 0.5 h"
  readout number: 61
- structure notation: "CCOc1ccc(Nc2nc3cc(S(C)(=O)=O)ccc3o2)cc1"
  observable: "remaining at 0.5 h"
  readout number: 62
- structure notation: "CCS(=O)(=O)c1ccc2oc(Nc3ccc(N4CCOCC4)nc3)nc2c1"
  observable: "remaining at 0.5 h"
  readout number: 81
- structure notation: "CCS(=O)(=O)c1ccc2oc(Nc3ccc(C(C)(C)C)cc3)nc2c1"
  observable: "remaining at 0.5 h"
  readout number: 27
